Metric name: melting point

Field: example entries. Status: answers known.
Prompt line: Give the value of melting point reported for the following: COc1ccc(C=NNc2nc(-c3cc4ccccc4oc3=O)cs2)c(OC)c1
Response line: 219 to 220 °C

Prompt line: Could you please provide reported melting point for O=c1oc2ccccc2cc1-c1csc(NN=Cc2cc3ccccc3c3ccccc23)n1 ? Thanks!
Response line: 245 to 247 °C

Prompt line: For the compound O=c1oc2ccccc2cc1-c1csc(NN=Cc2ccc(-c3ccccc3)cc2)n1 , give its measured melting point value.
Response line: 198 to 200 °C

Prompt line: Recall and state the measured melting point for O=c1oc2ccccc2cc1-c1csc(NN=Cc2ccc(O)c(Br)c2)n1 .
Response line: 182 to 184 °C

Attention now shifts to the item below.
Prompt line: Tell me measured melting point for O=c1oc2ccccc2cc1-c1csc(NN=Cc2ccccc2Br)n1 please.
Response line: 212 to 213 °C
